This collection of values is drawn from ChEMBL document CHEMBL1135256.

tested on: Purine nucleoside phosphorylase (Toxoplasma gondii); assay: Inhibition of Toxoplasma gondii purine nucleoside phosphorylase from cystic strain ME 49 at 1 mM
measured property: inhibition (%)

# mol, assayed target, units label, assay result
rows = [
    ("CCCCn1cnc2c1C(=O)C=CC2=O", "Purine nucleoside phosphorylase (Toxoplasma gondii)", "%", 53),
    ("O=C1C=CC(=O)c2c1ncn2Cc1cccc(F)c1", "Purine nucleoside phosphorylase (Toxoplasma gondii)", "%", 60),
    ("O=C1C=CC(=O)c2c1ncn2Cc1ccc(F)cc1", "Purine nucleoside phosphorylase (Toxoplasma gondii)", "%", 56),
    ("O=C1C=CC(=O)c2[nH]cnc21", "Purine nucleoside phosphorylase (Toxoplasma gondii)", "%", 52),
    ("Cn1cnc2c1C(=O)C=CC2=O", "Purine nucleoside phosphorylase (Toxoplasma gondii)", "%", 31),
    ("O=C1C=CC(=O)c2c1nc(Cc1ccccc1)n2Cc1ccccc1", "Purine nucleoside phosphorylase (Toxoplasma gondii)", "%", 61),
    ("O=c1[nH]cnc2c1cnn2[C@@H]1O[C@H](CO)[C@@H](O)[C@H]1O", "Purine nucleoside phosphorylase (Toxoplasma gondii)", "%", 11),
    ("Cc1nc2c(n1Cc1ccccc1)C(=O)C=CC2=O", "Purine nucleoside phosphorylase (Toxoplasma gondii)", "%", 66),
    ("O=C1C=CC(=O)c2c1ncn2Cc1ccccc1F", "Purine nucleoside phosphorylase (Toxoplasma gondii)", "%", 62),
]

====

test system: Purine nucleoside phosphorylase (Toxoplasma gondii); experiment: Inhibition of Toxoplasma gondii purine nucleoside phosphorylase from cystic strain ME 49 at 4 mM
In this section we review reported inhibition values for a set of compounds.

# mol, units label, inhibition
rows = [
    ("O=C1C=CC(=O)c2c1nc(Cc1ccccc1)n2Cc1ccccc1", "%", 78),
    ("Cn1cnc2c1C(=O)C=CC2=O", "%", 82),
    ("O=c1[nH]cnc2c1cnn2[C@@H]1O[C@H](CO)[C@@H](O)[C@H]1O", "%", 22),
    ("O=C1C=CC(=O)c2c1ncn2Cc1cccc(F)c1", "%", 100),
    ("O=C1C=CC(=O)c2[nH]cnc21", "%", 71),
    ("CCCCn1cnc2c1C(=O)C=CC2=O", "%", 65),
    ("O=C1C=CC(=O)c2c1ncn2Cc1ccccc1F", "%", 89),
    ("Cc1nc2c(n1Cc1ccccc1)C(=O)C=CC2=O", "%", 92),
]

====

tested on: Purine nucleoside phosphorylase (Toxoplasma gondii); assay: Inhibition of Toxoplasma gondii purine nucleoside phosphorylase from virulent strain RH at 4 mM
Threshold check on inhibition: at or above 80% gives true (1), strictly below gives false (0).

# mol, class label
measured = [
    ("O=C1C=CC(=O)c2c1ncn2Cc1ccc(F)cc1", "true (1)"),
    ("O=c1[nH]cnc2c1cnn2[C@@H]1O[C@H](CO)[C@@H](O)[C@H]1O", "false (0)"),
    ("CCCCn1cnc2c1C(=O)C=CC2=O", "false (0)"),
    ("O=C1C=CC(=O)c2c1ncn2Cc1cccc(F)c1", "true (1)"),
    ("O=C1C=CC(=O)c2c1ncn2Cc1ccccc1F", "true (1)"),
]

====

system: Purine nucleoside phosphorylase (Toxoplasma gondii); test: Inhibition of Toxoplasma gondii purine nucleoside phosphorylase from virulent strain RH at 1 mM
Short version: inhibition at least 50% is yes (1), less is no (0).

# mol, class label
data = [
    ("CCCCn1cnc2c1C(=O)C=CC2=O", "no (0)"),
    ("O=C1C=CC(=O)c2c1ncn2Cc1cccc(F)c1", "yes (1)"),
    ("O=c1[nH]cnc2c1cnn2[C@@H]1O[C@H](CO)[C@@H](O)[C@H]1O", "no (0)"),
    ("Cc1nc2c(n1Cc1ccccc1)C(=O)C=CC2=O", "yes (1)"),
    ("O=C1C=CC(=O)c2c1ncn2Cc1ccc(F)cc1", "yes (1)"),
    ("O=C1C=CC(=O)c2c1ncn2Cc1ccccc1F", "yes (1)"),
    ("Cn1cnc2c1C(=O)C=CC2=O", "yes (1)"),
    ("O=C1C=CC(=O)c2[nH]cnc21", "no (0)"),
    ("O=C1C=CC(=O)c2c1nc(Cc1ccccc1)n2Cc1ccccc1", "yes (1)"),
]
